System: Escherichia coli TOP10;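 further: peptides expressed intracellularly from a pBAD plasmid library in pooled LB shake-flask culture, induced with 0.3% L-arabinose, DNA abundance read by NGS, three biological replicates, DESeq2 with apeglm shrinkage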
TEST PROTOCOL: shrunken log2 fold change of peptide-encoding DNA abundance (4.5 h post-induction vs induction); higher = less antimicrobial activity (less host growth inhibition)
CONDITION DESCRIPTION: time post-induction: 4.5 h; library: site-saturation at positions 5, 18, 19, 20
Kind request: treat 0.04 as inclusive, so shrunken log2 fold change at 0.04 or higher is Satisfied, anything lower is Not satisfied.

{"ITEM SEQUENCE": "RRIRMRPPRLPRPRPRPTFDPRP", "CATEGORY": "Satisfied"}
{"ITEM SEQUENCE": "RRIRFRPPRLPRPRPRPCQPPRP", "CATEGORY": "Not satisfied"}
{"ITEM SEQUENCE": "RRIRFRPPRLPRPRPRPVDGPRP", "CATEGORY": "Satisfied"}

Problem: Does RRIRHRPPRLPRPRPRPFCYPRP have a reported shrunken log2 fold change of at least 0.04?
Solution: Not satisfied

Problem: Does RRIRQRPPRLPRPRPRPHGFPRP have a reported shrunken log2 fold change of at least 0.04?
Solution: Not satisfied
